Test system: 857933-349-R-J2-PDC complex spheroids, viability;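 note: spheroids exposed to compounds for one week before readout; percent viability relative to vehicle DMSO wells taken as 100%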
Test: Anticancer human tumor 857933-349-R-J2-PDC patient-derived colon adenocarcinoma cell line growth inhibition [GQUAD]
Conditions: second compound 3.16 µM; first compound 0.1 µM; stronger effect = lower value
Measured viability, T/C of individual entries
Just the number in %, nothing appended.

Here is how some molecules turned out for viability, T/C.
CC1COCCN1c1cc(C2(S(C)(=N)=O)CC2)nc(-c2ccnc3[nH]ccc23)n1 (stereo not drawn) + Cc1cnc(CNC(=O)c2c(=O)c3ccc(N4CCCN(C)CC4)nc3n3c2sc2ccccc23)cn1 : 2.9
C#Cc1c(F)ccc2cc(O)cc(-c3ncc4c(N5CC6CCC(C5)N6)nc(OCC56CCCN5CC(F)C6)nc4c3F)c12 (stereo not drawn) + Cc1cnc(CNC(=O)c2c(=O)c3ccc(N4CCCN(C)CC4)nc3n3c2sc2ccccc23)cn1 : 2.35

Need viability, T/C, item CC1COCCN1c1cc(-c2ccnn2C)c2ccnc(-c3ccn[nH]3)c2n1 (stereo not drawn) + Cc1cnc(CNC(=O)c2c(=O)c3ccc(N4CCCN(C)CC4)nc3n3c2sc2ccccc23)cn1 3.98
